System: NCI-H1666
Assay: relative viability (nuclei count vs DMSO), 5 days (fraction); higher = more cells survive
Settings: first compound 0.3162 µM
attribute measured: relative viability
Response field accepts a number only; no unit should be typed.

Here's what some known entries look like.
# compound, assay system, relative viability
records = [
    ("O=c1cc(N2CCOCC2)oc2c(-c3cccc4c3sc3ccccc34)cccc12 + Cc1nc(Nc2ncc(C(=O)Nc3c(C)cccc3Cl)s2)cc(N2CCN(CCO)CC2)n1 [Dasatinib] (partner 0.075 µM)", "NCI-H1666", 0.809),
    ("O=c1cc(N2CCOCC2)oc2c(-c3cccc4c3sc3ccccc34)cccc12 + O=C(CCCCCCC(=O)Nc1ccccc1)NO [Vorinostat] (partner 1 µM)", "NCI-H1666", 1.03),
]

Lab note: next compound to report on.
query: Identify the measured relative viability of CCN(CC)CCCCNc1ncc2cc(-c3cc(OC)cc(OC)c3)c(NC(=O)NC(C)(C)C)nc2n1 + CC(C)C[C@H](NC(=O)[C@H](Cc1ccccc1)NC(=O)c1cnccn1)B(O)O [Bortezomib] (partner 0.002 µM) for NCI-H1666.
result: 0.724

###

Test system: NCI-H1792
Experiment: relative viability (nuclei count vs DMSO), 5 days (fraction); higher = more cells survive
Settings: first compound 0.253 µM
attribute measured: relative viability

Here's what some known entries look like.
# molecule, assay system, attribute measured, observed value
measured = [
    ("COc1nc(C)cnc1NS(=O)(=O)c1cccnc1-c1ccc(-c2nnco2)cc1 [Zibotentan] + N=C(N)NC(=N)NCCc1ccccc1 [Phenformin] (partner 250 µM)", "NCI-H1792", "relative viability", 0.244),
    ("O=c1cc(-c2cccc3c2Sc2ccccc2S3)oc(N2CCOCC2)c1 + CCNC(=O)c1noc(-c2cc(C(C)C)c(O)cc2O)c1-c1ccc(CN2CCOCC2)cc1 [Luminespib] (partner 0.01 µM)", "NCI-H1792", "relative viability", 0.686),
]

Lab note: next molecule to report on.
query: Would you kindly share the measured relative viability for O=c1cc(-c2cccc3c2Sc2ccccc2S3)oc(N2CCOCC2)c1 + N=C(N)NC(=N)NCCc1ccccc1 [Phenformin] (partner 250 µM) ?
result: 0.349

###

Test system: CAL-12T
Assay: relative viability (nuclei count vs DMSO), 5 days (fraction); higher = more cells survive
Conditions: first compound 0.8 µM
attribute measured: relative viability
Response field accepts a number only; no unit should be typed.

Here's what some known entries look like.
# molecule, observed value
rows = [
    ("COc1nc(C)cnc1NS(=O)(=O)c1cccnc1-c1ccc(-c2nnco2)cc1 [Zibotentan] + NC(=O)Nc1cc(-c2cccc(F)c2)sc1C(=O)N[C@H]1CCCNC1 [AZD7762] (partner 0.2 µM)", 0.526),
    ("O=c1cc(-c2cccc3c2Sc2ccccc2S3)oc(N2CCOCC2)c1 + N=C(N)NC(=N)NCCc1ccccc1 [Phenformin] (partner 250 µM)", 0.597),
    ("O=c1cc(-c2cccc3c2Sc2ccccc2S3)oc(N2CCOCC2)c1 + Cc1nc(Nc2ncc(C(=O)Nc3c(C)cccc3Cl)s2)cc(N2CCN(CCO)CC2)n1 [Dasatinib] (partner 0.075 µM)", 0.298),
]

Lab note: next molecule to report on.
query: Would you kindly share the measured relative viability for O=c1cc(-c2cccc3c2Sc2ccccc2S3)oc(N2CCOCC2)c1 + C[C@@H](Oc1cc(-c2cnn(C3CCNCC3)c2)cnc1N)c1c(Cl)ccc(F)c1Cl [Crizotinib] (partner 1 µM) ?
result: 0.85

###

Tested on: LCLC-103H
Assay: relative viability (nuclei count vs DMSO), 5 days (fraction); higher = more cells survive
Settings: first compound 0.8 µM
attribute measured: relative viability

Here's what some known entries look like.
# molecule, relative viability
records = [
    ("COc1nc(C)cnc1NS(=O)(=O)c1cccnc1-c1ccc(-c2nnco2)cc1 [Zibotentan] + CS(=O)(=O)N1CCN(Cc2cc3nc(-c4cccc5[nH]ncc45)nc(N4CCOCC4)c3s2)CC1 [Pictilisib] (partner 1 µM)", 0.55),
    ("O=c1cc(-c2cccc3c2Sc2ccccc2S3)oc(N2CCOCC2)c1 + O=C(c1cc(Cc2n[nH]c(=O)c3ccccc23)ccc1F)N1CCN(C(=O)C2CC2)CC1 [Olaparib] (partner 8 µM)", 0.873),
    ("O=c1cc(-c2cccc3c2Sc2ccccc2S3)oc(N2CCOCC2)c1 + Cc1nc(Nc2ncc(C(=O)Nc3c(C)cccc3Cl)s2)cc(N2CCN(CCO)CC2)n1 [Dasatinib] (partner 0.075 µM)", 0.528),
]

Lab note: next molecule to report on.
query: Would you kindly share the measured relative viability for O=c1cc(-c2cccc3c2Sc2ccccc2S3)oc(N2CCOCC2)c1 + N=C(N)NC(=N)NCCc1ccccc1 [Phenformin] (partner 250 µM) ?
result: 0.361

###

System: NCI-H522
Assay: relative viability (nuclei count vs DMSO), 5 days (fraction); higher = more cells survive
Conditions: first compound 6.325 µM
attribute measured: relative viability
Response field accepts a number only; no unit should be typed.

# compound, assay system, relative viability
records = [
    ("COCC1(CO)C(=O)C2CCN1CC2 (stereo unspecified) [PRIMA-1MET] + Nc1ncn([C@H]2C[C@H](O)[C@@H](CO)O2)c(=O)n1 [Decitabine] (partner 2 µM)", "NCI-H522", 0.672),
    ("COCC1(CO)C(=O)C2CCN1CC2 (stereo unspecified) [PRIMA-1MET] + CC(=O)Nc1cccc(-n2c(=O)n(C3CC3)c(=O)c3c(Nc4ccc(I)cc4F)n(C)c(=O)c(C)c32)c1 [Trametinib] (partner 0.02 µM)", "NCI-H522", 0.717),
    ("COCC1(CO)C(=O)C2CCN1CC2 (stereo unspecified) [PRIMA-1MET] + O=C(CCCCCCC(=O)Nc1ccccc1)NO [Vorinostat] (partner 1 µM)", "NCI-H522", 0.83),
    ("COCC1(CO)C(=O)C2CCN1CC2 (stereo unspecified) [PRIMA-1MET] + N=C(N)NC(=N)NCCc1ccccc1 [Phenformin] (partner 250 µM)", "NCI-H522", 0.619),
    ("COCC1(CO)C(=O)C2CCN1CC2 (stereo unspecified) [PRIMA-1MET] + O=C(c1cc(Cc2n[nH]c(=O)c3ccccc23)ccc1F)N1CCN(C(=O)C2CC2)CC1 [Olaparib] (partner 8 µM)", "NCI-H522", 0.604),
]

query: Would you kindly share the measured relative viability for COCC1(CO)C(=O)C2CCN1CC2 (stereo unspecified) [PRIMA-1MET] + CCNC(=O)c1noc(-c2cc(C(C)C)c(O)cc2O)c1-c1ccc(CN2CCOCC2)cc1 [Luminespib] (partner 0.01 µM) ?
result: 0.989

###

Tested on: NCI-H2405
Assay: relative viability (nuclei count vs DMSO), 5 days (fraction); higher = more cells survive
Details: first compound 2.53 µM
# label = Y if relative viability < 1 else N

# molecule, label value
rows = [
    ("O=c1cc(-c2cccc3c2Sc2ccccc2S3)oc(N2CCOCC2)c1 + COc1cccc2cc(-c3nc([C@H]4CC[C@H](C(=O)O)CC4)n4ncnc(N)c34)[nH]c12 [OSI-027] (partner 0.5 µM)", "Y"),
    ("COc1nc(C)cnc1NS(=O)(=O)c1cccnc1-c1ccc(-c2nnco2)cc1 [Zibotentan] + C[C@]1(O)C[C@@H](c2nc(-c3ccc4ccc(-c5ccccc5)nc4c3)c3c(N)nccn32)C1 [Linsitinib] (partner 1 µM)", "Y"),
    ("O=c1cc(-c2cccc3c2Sc2ccccc2S3)oc(N2CCOCC2)c1 + N=C(N)NC(=N)NCCc1ccccc1 [Phenformin] (partner 250 µM)", "Y"),
]

query: # TODO verify relative viability < 1 strictly for this molecule: COc1nc(C)cnc1NS(=O)(=O)c1cccnc1-c1ccc(-c2nnco2)cc1 [Zibotentan] + Nc1nc2[nH]cc(CCc3ccc(C(=O)N[C@@H](CCC(=O)O)C(=O)O)cc3)c2c(=O)[nH]1 [Pemetrexed] (partner 0.2 µM)
result: N

###

relative viability values, listed per item
System: NCI-H596
Assay: relative viability (nuclei count vs DMSO), 5 days (fraction); higher = more cells survive
Details: first compound 0.01 µM
Response field accepts a number only; no unit should be typed.

Here's what some known entries look like.
# molecule, assay system, relative viability
rows = [
    ("O=c1cc(N2CCOCC2)oc2c(-c3cccc4c3sc3ccccc34)cccc12 + C[C@@H](Oc1cc(-c2cnn(C3CCNCC3)c2)cnc1N)c1c(Cl)ccc(F)c1Cl [Crizotinib] (partner 1 µM)", "NCI-H596", 0.992),
    ("CCN(CC)CCCCNc1ncc2cc(-c3cc(OC)cc(OC)c3)c(NC(=O)NC(C)(C)C)nc2n1 + CS(=O)(=O)N1CCN(Cc2cc3nc(-c4cccc5[nH]ncc45)nc(N4CCOCC4)c3s2)CC1 [Pictilisib] (partner 1 µM)", "NCI-H596", 0.422),
    ("O=c1cc(N2CCOCC2)oc2c(-c3cccc4c3sc3ccccc34)cccc12 + CCNC(=O)c1noc(-c2cc(C(C)C)c(O)cc2O)c1-c1ccc(CN2CCOCC2)cc1 [Luminespib] (partner 0.01 µM)", "NCI-H596", 1.05),
    ("CCN(CC)CCCCNc1ncc2cc(-c3cc(OC)cc(OC)c3)c(NC(=O)NC(C)(C)C)nc2n1 + Nc1nc2[nH]cc(CCc3ccc(C(=O)N[C@@H](CCC(=O)O)C(=O)O)cc3)c2c(=O)[nH]1 [Pemetrexed] (partner 0.2 µM)", "NCI-H596", 0.453),
]

query: Would you kindly share the measured relative viability for CCN(CC)CCCCNc1ncc2cc(-c3cc(OC)cc(OC)c3)c(NC(=O)NC(C)(C)C)nc2n1 + C[C@@H](Oc1cc(-c2cnn(C3CCNCC3)c2)cnc1N)c1c(Cl)ccc(F)c1Cl [Crizotinib] (partner 1 µM) ?
result: 0.918
